# key: entry, value: apparent KD of MS2 coat protein
Test system: MS2 coat protein
Assay: apparent KD of MS2 coat protein; designed switch direction (-1 OFF switch, 1 ON switch): -1; higher = weaker reporter binding
Settings: input ligand: none
The answer is to be given in nM; state only the numeric part.

Sequence Input	Recorded Number
ACUCGCACUGUAAGGAUAUGCAAUUACGAAAGUGAGCAGAAGGUACAUGAGGAUCACCCAUGUGCGAAUCAGUG [Eternabot (Original) Solution 36] (Eterna round: R97, puzzle: Brourd's mod of Exclusion 4)	20
UAGCAUUGCCUUUGGUAGUGCUUUACAUGAGGAUCACCCAUGUAGGAUAUGGUCGGCUUUGCUGACCAGAAGGACAUGUGUAUU [MOD ENG3 1.04 by JL] (Eterna round: R96, puzzle: Exclusion NG 3)	80.7
GGCACACAUGAGGAUCACCCAUGUGAGGAUAUGCUGCGAUCGUCGAUAGACGAUAGCAGUAGAAGGCACAUGCC [Mat - Exclusion 1 - Eli Mod - D7] (Eterna round: R97, puzzle: Exclusion 1)	19.1
GCGGCGUAUGUAGGAUAUCGGUCAGUUUCUGAUCGAGAAGGACAUGAGGAUCACCCAUGUAAAUUACCGACUUUGUCGGGCCGC [JL ENG1 3.66] (Eterna round: R96, puzzle: Exclusion NG 1)	17.7
UGUUGUCGCGUAGGAUAUGGCCAACAGGCCGUAGGAUAUGGGAAACCAGAAGGACCGCCAACAGGCGAGAAGGACGGGACAACU [pwkr exNG2 2xF7 2xFMN.21] (Eterna round: R96, puzzle: Exclusion NG 2)	72
GCGCAAACGCCAAAAGGCGAAACAACAUGAGGAUCACCCAUGUAGGAUAUCGAUUGCUUUGCAGUCGAGAAGGACAAAAUGCGC [JL ENG3 3.80 Mod 6] (Eterna round: R96, puzzle: Exclusion NG 3)	15.7

Req: Given the entry GCAUGCUGAGUUAGGAUAUGCUAGCGUUGCCGCUAGCAGAAGGAACAUGAGGAUCACCCAUGUUAGCAUGCAGU [eternacac ex4r4 #2] (Eterna round: R97, puzzle: Brourd's mod of Exclusion 4) , report its measured apparent KD of MS2 coat protein.
Resp: 14

Req: Consider next the sequence AUCGGCUCAGUCAGGAUAUGAUUGAAUCGUUGCAAUUAGAAGGGACAUGAGGAUCACCCAUGUGCGGUGCGGUC [Eternabot (L1) Solution 27] (Eterna round: R97, puzzle: Brourd's mod of Exclusion 4) in the same way.
Resp: 169

Req: Try this sequence next: ACAUGAGGAUCACCCAUGUUUGGCUGGUCCUCUCCGGCUGUCGAGGAUAUAGUACGGUAUCCGCGCUAGAAGGUGAGGGCCGGC [Aenatbe] (Eterna round: R96, puzzle: Exclusion NG 3)
Resp: 17.1

====

Test system: MS2 coat protein
Assay: apparent KD of MS2 coat protein; designed switch direction (-1 OFF switch, 1 ON switch): -1; higher = weaker reporter binding
Conditions: input ligand: none
Cut-off 30 nM on apparent KD of MS2 coat protein, inclusive. At or above means 1.0; below means 0.0.

Examples from the recorded data:
Sequence Input	Cat
UACCUGAGGCUUUGCUUUAGGUAUACAUGAGGAUCACCCAUGUAGGAUAUGGUAGGCUUUGCUUACCAGAAGGACAUGUUAAUU [JL ENG3 1.09] (Eterna round: R96, puzzle: Exclusion NG 3)	0.0
ACCUUACUGGUCAGGAUAUACAGUCUUUGGUGUGUGUAGAAGGGACAUGAGGAUCACCCAUGUAGGUUGUUUUA [alecazam62b] (Eterna round: R97, puzzle: Brourd's mod of Exclusion 4)	1.0
UUAUUGUAUGUAGGAUAUGCGUAUUAUUGUUAUGCAGAAGGACAUGAGGAUCACCCAUGUAUAUUAUUGUUAUAUAUUAUAUAU [Title] (Eterna round: R96, puzzle: Exclusion NG 1)	0.0

Req: Quick check, apparent KD of MS2 coat protein >= 30 nM? AAUUGACGCCAAAUAUACAACAUGAGGAUCACCCAUGUACCCUAGGUACGCUCGCAGGCAAGCUUUGCUCGUCCACA [Eternabot (L1) Solution 33] (Eterna round: R97, puzzle: Sensor, turn-off variant 1)
Resp: 1.0

Req: Queued: AGCCCUGCAGGAUAUGCCGAGGAUAACAUGAGGAUCACCCAUGUGACCGAUUGUUAGACUGCAGAAGGGCAUGGGA [salish99_ex5_r4_303] (Eterna round: R97, puzzle: Exclusion 5)
Resp: 1.0

Req: Another sequence: UUAAAUCAUGUAGGAUAUGCGUGGCGAAGCUAUGCAGAAGGACAUGAGGAUCACCCAUGUUCUAGCGUCUGCGUACAGAUGCAA [JL ENG1 1.10] (Eterna round: R96, puzzle: Exclusion NG 1)
Resp: 0.0

Req: Also need CCAUUCAGAGGAUAUGCGAAUAAAUAAAACUUUUUUUUUUAACAUGAGGAUCACCCAUGUAGAAGGCUGUAACC [Ex2 #44] (Eterna round: R97, puzzle: Exclusion 2) , thanks.
Resp: 0.0
